# Target of assay: integrin α4β7 (Homo sapiens, UniProt P13612+P26010)
# Sequence (P13612 34-1032): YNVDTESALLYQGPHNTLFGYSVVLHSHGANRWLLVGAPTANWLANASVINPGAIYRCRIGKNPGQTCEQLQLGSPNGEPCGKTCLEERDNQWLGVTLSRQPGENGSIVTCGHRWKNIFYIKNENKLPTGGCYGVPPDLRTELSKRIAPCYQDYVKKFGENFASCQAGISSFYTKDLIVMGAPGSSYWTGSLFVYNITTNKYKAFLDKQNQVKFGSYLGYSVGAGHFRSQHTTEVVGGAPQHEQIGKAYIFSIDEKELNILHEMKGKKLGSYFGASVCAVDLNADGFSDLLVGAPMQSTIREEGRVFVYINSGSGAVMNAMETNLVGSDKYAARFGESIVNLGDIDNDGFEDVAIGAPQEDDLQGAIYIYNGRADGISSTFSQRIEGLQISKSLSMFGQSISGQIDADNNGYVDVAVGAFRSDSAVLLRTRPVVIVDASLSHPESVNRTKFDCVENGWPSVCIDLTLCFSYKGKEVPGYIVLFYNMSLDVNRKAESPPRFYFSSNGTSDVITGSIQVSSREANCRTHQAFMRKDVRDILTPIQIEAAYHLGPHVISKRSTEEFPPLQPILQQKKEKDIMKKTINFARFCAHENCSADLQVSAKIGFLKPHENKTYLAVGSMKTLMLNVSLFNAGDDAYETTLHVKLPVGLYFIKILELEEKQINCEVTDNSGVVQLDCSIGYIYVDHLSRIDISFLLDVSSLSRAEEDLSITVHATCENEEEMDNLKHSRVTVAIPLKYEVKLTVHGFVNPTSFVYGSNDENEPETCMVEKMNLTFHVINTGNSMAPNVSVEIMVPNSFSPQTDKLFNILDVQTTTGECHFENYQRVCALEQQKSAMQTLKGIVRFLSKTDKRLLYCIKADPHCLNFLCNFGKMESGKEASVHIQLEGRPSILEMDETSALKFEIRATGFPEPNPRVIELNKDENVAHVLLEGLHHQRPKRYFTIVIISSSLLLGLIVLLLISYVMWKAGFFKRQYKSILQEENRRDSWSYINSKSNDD
# Sequence (P26010 20-798): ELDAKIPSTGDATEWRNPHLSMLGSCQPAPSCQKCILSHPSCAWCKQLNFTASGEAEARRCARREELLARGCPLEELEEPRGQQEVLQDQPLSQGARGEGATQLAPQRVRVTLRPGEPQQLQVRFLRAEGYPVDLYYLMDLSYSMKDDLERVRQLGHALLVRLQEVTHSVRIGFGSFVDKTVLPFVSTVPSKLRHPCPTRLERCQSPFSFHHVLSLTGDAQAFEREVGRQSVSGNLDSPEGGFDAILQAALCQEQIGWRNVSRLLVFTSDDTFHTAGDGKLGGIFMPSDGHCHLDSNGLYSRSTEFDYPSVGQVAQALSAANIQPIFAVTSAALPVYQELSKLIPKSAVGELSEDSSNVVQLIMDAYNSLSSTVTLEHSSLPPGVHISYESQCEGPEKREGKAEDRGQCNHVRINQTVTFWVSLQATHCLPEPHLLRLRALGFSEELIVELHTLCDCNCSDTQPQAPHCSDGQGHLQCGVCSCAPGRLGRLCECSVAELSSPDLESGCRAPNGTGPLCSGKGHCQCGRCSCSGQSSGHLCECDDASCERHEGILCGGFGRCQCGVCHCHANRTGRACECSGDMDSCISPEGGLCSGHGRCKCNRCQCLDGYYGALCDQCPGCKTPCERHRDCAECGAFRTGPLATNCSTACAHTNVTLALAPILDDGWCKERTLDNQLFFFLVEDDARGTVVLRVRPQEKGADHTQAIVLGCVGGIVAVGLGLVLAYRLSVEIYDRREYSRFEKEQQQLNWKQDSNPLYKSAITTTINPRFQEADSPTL
# Protocol notes: Integrin α4β7 cell adhesion assay (RPMI8866 cells on MAdCAM-1)
# Format: cell-based
Experimental endpoint: IC50

Which IC50 is listed for COc1cc(C)c(-c2c(F)c(C(CC(=O)O)NC(=O)C(CC(C)C)n3cc(CCN(C)C)c(C(F)(F)F)cc3=O)c(F)c3c2CCC3)c(C)c1 (single isomer, unassigned) ?
< 10 nM

----------
# Test system: integrin α4β1
# Protocol notes: Integrin α4β1-mediated cell adhesion assay (Jurkat cells on VCAM)
# Assay type: cell-based
# Experimental conditions: selectivity ratio of Jurkat (α4β1)/VCAM-1 IC50 to RPMI-8866 (α4β7)/MadCAM-1 IC50
Where a name gives a salt, the structure may show the parent alone.
Experimental endpoint: α4β1/α4β7
When you answer, write just the number.

Look up α4β1/α4β7 for this compound: Cc1cc(F)cc(C)c1-c1c(F)c(C(CC(=O)O)NC(=O)C(CC(C)C)n2cc(CCC3CCN(C)C3)c(C(F)(F)F)cc2=O)c(F)c2c1CCC2 (centres unmarked) [Trifluoroacetate salt of compound 26-2]
177

Entry Cc1cc(-c2c(C)cc(F)cc2C)cc([C@H](CC(=O)O)NC(=O)[C@H](CC(C)C)n2cc(CCN(C)C)c(C(F)(F)F)cc2=O)c1F [Control compound A] please
50.4

Now give it for Cc1cc(F)cc(C)c1-c1cc(C(CC(=O)O)NC(=O)[C@H](CC(C)C)n2cc(CC3CN(CC4CC4)C3)c(C(F)(F)F)cc2=O)cc2c1CCC2 (some centres unmarked) [Trifluoroacetate salt of compound 15-2] too.
272

Cool, now Cc1cc(F)cc(C)c1-c1cc(C(CC(=O)O)NC(=O)C(CC(C)C)n2cc(CC3CCN(C(C)C)CC3)c(C(F)(F)F)cc2=O)cc2c1CCC2 (centres unmarked) [Trifluoroacetate salt of compound 22-2]
307

Another compound to look at: COc1cc(C)c(-c2c(F)c(C(CC(=O)O)NC(=O)C(CC(C)C)n3cc(CCN(C)C)c(C(F)(F)F)cc3=O)c(F)c3c2CCC3)c(C)c1 (single isomer, unassigned) [Trifluoroacetate salt of compound 21-2]
1586

----------
# Test system: integrin α4β1
# Protocol notes: Integrin α4β1-mediated cell adhesion assay (Jurkat cells on VCAM)
# Type: cell-based
# Experimental conditions: Jurkat cells, VCAM coated plate; read-out: Jurkat (α4β1)/VCAM-1 IC50
Structures can show the parent of a compound that is named as a salt.
Experimental endpoint: IC50

Value lookup for IC50; key = CC#Cc1cc(-c2c(C)cccc2C)c(F)c(C(CC(=O)O)NC(=O)[C@@H](CC(C)C)n2cc(CCN(CC)CC)c(C(F)(F)F)cc2=O)c1F (stereo partly shown) [Trifluoroacetate salt of compound 12-2]
> 100 nM

Please give the result for CC#Cc1cc(-c2c(C)cccc2C)c(F)c(C(CC(=O)O)NC(=O)[C@H](CC(C)C)n2cc(CCC3CCCN3C)c(C(F)(F)F)cc2=O)c1F (stereo partly shown) [Trifluoroacetate salt of compound 29-2] too.
> 200 nM

Another compound: CC#Cc1cc(-c2c(C)cccc2C)c(F)c(C(CC(=O)O)NC(=O)C(CC(C)C)n2cc(CC3CCN(C(C)C)CC3)c(C(F)(F)F)cc2=O)c1F (single isomer, unassigned) [Trifluoroacetate salt of compound 23-2]
> 500 nM

Param item: CC#Cc1cc(-c2c(C)cccc2C)c(F)c(C(CC(=O)O)NC(=O)C(CC(C)C)n2cc(CCN(C)CC3CC3(F)F)c(C(F)(F)F)cc2=O)c1F (single isomer, unassigned)
> 500 nM

Next record, please: CC#Cc1cc(-c2c(C)cccc2C)c(F)c(C(CC(=O)O)NC(=O)C(CC(C)C)n2cc(CC3CN(C(C)C)C3)c(C(F)(F)F)cc2=O)c1F (single isomer, unassigned) [Trifluoroacetate salt of compound 18-2]
> 500 nM

Also check CC#Cc1cc(-c2c(C)cccc2C)c(F)c(C(CC(=O)O)NC(=O)C(CC(C)C)n2cc(CC3CN(CC4CC4)C3)c(C(F)(F)F)cc2=O)c1F (single isomer, unassigned) [Trifluoroacetate salt of compound 19-2]
> 500 nM

Also, Cc1cccc(C)c1-c1c(F)c(C(CC(=O)O)NC(=O)C(CC(C)C)n2cc(CCN(C)C)c(C(F)(F)F)cc2=O)c(F)c2c1CCC2 (single isomer, unassigned) [Trifluoroacetate salt of compound 20-2] please.
> 500 nM

Now consider Cc1cc(F)cc(C)c1-c1cc(C(CC(=O)O)NC(=O)[C@H](CC(C)C)n2cc(CC3CN(CC4CC4)C3)c(C(F)(F)F)cc2=O)cc2c1CCC2 (stereo partly shown) [Trifluoroacetate salt of compound 15-2] .
> 100 nM

Cool, now CC#Cc1cc(-c2c(C)cccc2C)c(F)c(C(CC(=O)O)NC(=O)C(CC(C)C)n2cc(CCC3CCN(C)C3)c(C(F)(F)F)cc2=O)c1F (single isomer, unassigned) [Trifluoroacetate salt of compound 27-2]
> 100 nM

Same again, this time with Cc1cc(F)cc(C)c1-c1c(F)c(C(CC(=O)O)NC(=O)[C@H](CC(C)C)n2cc(CC3CN(C(C)C)C3)c(C(F)(F)F)cc2=O)c(F)c2c1CCC2 (stereo partly shown) [Trifluoroacetate salt of compound 32-2]
> 100 nM
